target: KRAS G12D (Homo sapiens (Human), UniProt P01116+P62937, G12D); assay: Ras-Raf disruption/FRET/MOA assay, KRAS G12D; type: biochemical; conditions: read-out: KRAS G12D FRET IC50
Sequence (P01116 other isoform, or with tags, fused parts or gaps G12D, one chain of several): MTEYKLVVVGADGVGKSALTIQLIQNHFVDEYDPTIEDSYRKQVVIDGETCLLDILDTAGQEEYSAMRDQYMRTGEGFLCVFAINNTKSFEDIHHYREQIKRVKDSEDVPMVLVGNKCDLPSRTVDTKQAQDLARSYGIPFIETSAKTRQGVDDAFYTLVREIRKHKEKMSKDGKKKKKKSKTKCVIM
Metric: IC50

| Molecule | Metric | Assay result |
| --- | --- | --- |
| CCn1c(-c2cnccc2COC)c2c3cc(ccc31)-c1cc(O)cc(c1)C[C@H](NC(=O)[C@H](C(C)C)N(C)C(=O)C1CCN(C(=O)[C@@H]3CN3)CC1)C(=O)N1CCC[C@H](N1)C(=O)OCC(C)(C)C2 [Example 4] | IC50 | 1000 to 10000 nM |
| CCn1c(-c2cnccc2COC)c2c3cc(ccc31)-c1cc(O)cc(c1)C[C@H](NC(=O)[C@H](C(C)C)N(C)C(=O)C1CCN(C(=O)[C@H]3CN3)CC1)C(=O)N1CCC[C@H](N1)C(=O)OCC(C)(C)C2 [Example 3] | IC50 | 1000 to 10000 nM |
| CCn1c(-c2cnccc2COC)c2c3cc(ccc31)-c1cc(O)cc(c1)C[C@H](NC(=O)[C@H](C(C)C)N(C)C(=O)[C@H]1CCN(C(=O)[C@@H]3CO3)C1)C(=O)N1CCC[C@H](N1)C(=O)OCC(C)(C)C2 [Example 31] | IC50 | 1000 to 10000 nM |
| CCn1c(-c2cnccc2COC)c2c3cc(ccc31)-c1cc(O)cc(c1)C[C@H](NC(=O)[C@H](C(C)C)N(C)C(=O)[C@H]1CCN(C(=O)[C@H]3CN3)C1)C(=O)N1CCC[C@H](N1)C(=O)OCC(C)(C)C2 [Example 1] | IC50 | 100 to 1000 nM |
| CCn1c(-c2cnccc2COC)c2c3cc(ccc31)-c1cc(O)cc(c1)C[C@H](NC(=O)[C@H](C(C)C)N(C)C(=O)CCN(C)C(=O)[C@H]1CN1)C(=O)N1CCC[C@H](N1)C(=O)OCC(C)(C)C2 (single isomer, unassigned) [Example 41] | IC50 | 100 to 1000 nM |
| CCn1c(-c2cnccc2COC)c2c3cc(ccc31)-c1cccc(c1)C[C@H](NC(=O)[C@H](C(C)C)N1CC[C@H](CN=C=Nc3ccc(OC)cc3)C1)C(=O)N1CCC[C@H](N1)C(=O)OCC(C)(C)C2 [Example 81] | IC50 | > 10000 nM |
| CCn1c(-c2cnccc2COC)c2c3cc(ccc31)-c1cc(O)cc(c1)C[C@H](NC(=O)[C@@H](CN(C)C(=O)[C@@H]1CN1)C(C)C)C(=O)N1CCC[C@H](N1)C(=O)OCC(C)(C)C2 [Example 60] | IC50 | > 10000 nM |
| CCn1c(-c2cnccc2COC)c2c3cc(ccc31)-c1cccc(c1)C[C@H](NC(=O)[C@H](C(C)C)N(C)C(=O)CCN=C=Nc1ccccc1COC)C(=O)N1CCC[C@H](N1)C(=O)OCC(C)(C)C2 [Example 63] | IC50 | 1000 to 10000 nM |
| CCn1c(-c2cnccc2COC)c2c3cc(ccc31)-c1cc(O)cc(c1)C[C@H](NC(=O)[C@H](C(C)C)N(C)C(=O)CN1C(=O)[C@H]3N[C@H]3C1=O)C(=O)N1CCC[C@H](N1)C(=O)OCC(C)(C)C2 [Example 98] | IC50 | 1000 to 10000 nM |
| CCn1c(-c2cnccc2COC)c2c3cc(ccc31)-c1cc(O)cc(c1)C[C@H](NC(=O)[C@H](C(C)C)N(C)C(=O)c1ccc(NC(=O)[C@@H]3CN3)cn1)C(=O)N1CCC[C@H](N1)C(=O)OCC(C)(C)C2 [Example 46] | IC50 | 1000 to 10000 nM |
| CCn1c(-c2cnccc2COC)c2c3cc(ccc31)-c1cc(O)cc(c1)C[C@H](NC(=O)[C@H](C(C)C)N(C)C(=O)C1CN(C(=O)[C@@H]3CN3)C1)C(=O)N1CCC[C@H](N1)C(=O)OCC(C)(C)C2 [Example 6] | IC50 | 1000 to 10000 nM |
| CCn1c(-c2cccnc2[C@H](C)OC)c2c3cc(ccc31)-c1cccc(c1)C[C@H](NC(=O)[C@H](C(C)C)N1CC[C@@H](CN=C=NCCOC)C1)C(=O)N1CCC[C@H](N1)C(=O)OCC(C)(C)C2 [Example 121] | IC50 | 1000 to 10000 nM |
| CCn1c(-c2cccnc2COC)c2c3cc(ccc31)-c1cc(O)cc(c1)C[C@H](NC(=O)[C@H](C(C)C)N(C)C(=O)CNC1=NCCO1)C(=O)N1CCC[C@H](N1)C(=O)OCC(C)(C)C2 [Example 28] | IC50 | > 10000 nM |
| CCn1c(-c2cnccc2COC)c2c3cc(ccc31)-c1cccc(c1)C[C@H](NC(=O)[C@H](C(C)C)N(C)C(=O)CCN=C=Nc1ccc(N(C)C)cc1)C(=O)N1CCC[C@H](N1)C(=O)OCC(C)(C)C2 [Example 66] | IC50 | 1000 to 10000 nM |
| CCn1c(-c2cnccc2COC)c2c3cc(ccc31)-c1cccc(c1)C[C@H](NC(=O)[C@H](C(C)C)N(C)C(=O)CCN=C=NCc1c(OC)cccc1OC)C(=O)N1CCC[C@H](N1)C(=O)OCC(C)(C)C2 [Example 75] | IC50 | > 10000 nM |
| CCn1c(-c2cnccc2COC)c2c3cc(ccc31)-c1cc(O)cc(c1)C[C@H](NC(=O)[C@@H](CCNC(=O)NCCCl)C(C)C)C(=O)N1CCC[C@H](N1)C(=O)OCC(C)(C)C2 [Example 26] | IC50 | > 10000 nM |
| CCn1c(-c2cccnc2[C@H](C)OC)c2c3cc(ccc31)-c1cc(O)cc(c1)C[C@H](NC(=O)[C@H](C(C)C)N1CCC3(CC(C(=O)[C@H]4CN4)C3)C1=O)C(=O)N1CCC[C@H](N1)C(=O)OCC(C)(C)C2 (stereo partly drawn) [Example 115] | IC50 | 100 to 1000 nM |
| CCn1c(-c2cnccc2COC)c2c3cc(ccc31)-c1cc(O)cc(c1)C[C@H](NC(=O)[C@H](C(C)C)N(C)C(=O)CCNC1=NCCO1)C(=O)N1CCC[C@H](N1)C(=O)OCC(C)(C)C2 [Example 120] | IC50 | 100 to 1000 nM |

====

pIC50 values, listed per item
biological target: KRAS G13D (Homo sapiens (Human), UniProt P01116+P62937, G13D); experiment: Ras-Raf disruption/FRET/MOA assay (BRAF RBD, Cyclophilin A); format: biochemical; details: read-out: KRAS G13D FRET data IC50
Sequence (P01116 other isoform, or with tags, fused parts or gaps G13D, one chain of several): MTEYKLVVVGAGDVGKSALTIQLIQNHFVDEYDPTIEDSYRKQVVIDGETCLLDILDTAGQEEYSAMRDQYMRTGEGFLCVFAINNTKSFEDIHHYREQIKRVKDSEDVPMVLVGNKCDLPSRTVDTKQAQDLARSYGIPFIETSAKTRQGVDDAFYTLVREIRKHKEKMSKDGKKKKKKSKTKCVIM
pIC50: −log10 of the molar value.

| Molecule | pIC50 |
| --- | --- |
| CCn1c(-c2cccnc2[C@H](C)OC)c2c3cc(ccc31)-c1csc(n1)C[C@H](NC(=O)[C@H](C(C)C)N(C)C(=O)N(C)C1CN(C)C1)C(=O)N1CCC[C@H](N1)C(=O)OCC(C)(C)C2 [Compound A611] | 6.00 to 7.00 |
| CCn1c(-c2cccnc2[C@H](C)OC)c2c3cc(ccc31)-c1cc(O)cc(c1)C[C@H](NS(=O)(=O)N1CCC1)C(=O)N1CCC[C@H](N1)C(=O)OCC(C)(C)C2 [Compound A189] | < 5.00 |
| CCn1c(-c2cccnc2[C@H](C)OC)c2c3cc(ccc31)-c1cc(O)cc(c1)C[C@H](NC(=O)[C@H](C(C)C)N(C)C(=O)C1CCC3(CCOC3)O1)C(=O)N1CCC[C@H](N1)C(=O)OCC(C)(C)C2 (some centres unmarked) [Compound A409] | 7.00 to 8.00 |
| CCn1c(-c2cccnc2[C@H](C)OC)c2c3cc(ccc31)-c1csc(n1)C[C@H](NC(=O)[C@H](C(C)C)N(C)C(=O)N1CC([C@H](C)COC)C1)C(=O)N1CCC[C@H](N1)C(=O)OCC(C)(C)C2 [Compound A533] | 6.00 to 7.00 |
| CCn1c(-c2cnccc2COC)c2c3cc(ccc31)-c1cc(O)cc(c1)C[C@H](NC(=O)[C@H](C(C)C)N(C)c1cnc(N)[nH]c1=O)C(=O)N1CCC[C@H](N1)C(=O)OCC(C)(C)C2 [Compound A63] | 5.00 to 6.00 |

====

pIC50 values, listed per item
Target: NRAS Q61K binding to BRAF RBD (Homo sapiens (Human), UniProt P01111+P62937, Q61K)
Sequence (P01111 whole entry Q61K): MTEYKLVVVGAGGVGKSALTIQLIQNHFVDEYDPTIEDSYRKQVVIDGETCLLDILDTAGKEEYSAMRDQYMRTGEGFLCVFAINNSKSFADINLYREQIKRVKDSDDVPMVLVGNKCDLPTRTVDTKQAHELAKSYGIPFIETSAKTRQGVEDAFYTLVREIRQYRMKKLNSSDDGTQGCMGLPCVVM
Sequence (P62937 whole entry): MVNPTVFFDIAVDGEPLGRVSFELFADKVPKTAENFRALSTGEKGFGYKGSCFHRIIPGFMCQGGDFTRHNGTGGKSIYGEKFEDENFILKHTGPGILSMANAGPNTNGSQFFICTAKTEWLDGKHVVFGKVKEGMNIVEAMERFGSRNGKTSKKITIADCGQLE
Experiment: Ras-Raf disruption/FRET/MOA assay, NRAS Q61K
Excerpt: Disruption of B-Raf Ras-binding Domain (BRAF^RBD) Interaction with K-Ras by Compounds of the Invention (also called a FRET assay or an MOA assay) Note—The following protocol describes a procedure for monitoring disruption of K-Ras G12C(GMP-PNP) binding to BRAF^RBD by a compound of the invention. This protocol may also be executed substituting other Ras proteins or nucleotides. […]
pIC50: −log10 of the molar value.

| Compound | Tgt | pIC50 |
| --- | --- | --- |
| CCn1c(-c2cccnc2[C@H](C)OC)c2c3cc(ccc31)N1CCO[C@@H](C[C@H](NC(=O)[C@H](C(C)C)N(C)C(=O)[C@@]3(F)CCN(C(=O)C#CC(C)(C)N4CCC4)C3)C(=O)N3CCC[C@H](N3)C(=O)OCC(C)(C)C2)C1 | NRAS Q61K binding to BRAF RBD (Homo sapiens (Human), UniProt P01111+P62937, Q61K) | < 5.00 |
| C=CC(=O)N1CC[C@]2(C1)OCN([C@H](C(=O)N[C@H]1Cc3cc(cc(C(F)(F)F)c3)-c3ccc4c(c3)c(c(-c3cccnc3[C@H](C)OC)n4CC)CC(C)(C)COC(=O)[C@@H]3CCCN(N3)C1=O)C(C)C)C2=O | NRAS Q61K binding to BRAF RBD (Homo sapiens (Human), UniProt P01111+P62937, Q61K) | 5.00 to 6.00 |
| C=CC(=O)N(C)CCN1CCN(C(=O)N(C)[C@H](C(=O)N[C@H]2C[n+]3cccc(c3)-c3ccc4c(c3)c(c(-c3cccnc3[C@H](C)OC)n4CC)CC(C)(C)COC(=O)[C@@H]3CCCN(N3)C2=O)C(C)C)CC1 | NRAS Q61K binding to BRAF RBD (Homo sapiens (Human), UniProt P01111+P62937, Q61K) | 6.00 to 7.00 |
| CCn1c(-c2cncnc2)c2c3cc(ccc31)-c1csc(n1)C[C@H](NC(=O)[C@H](C(C)C)N(C)C(=O)[C@H]1CCN(S(=O)(=O)CC)C1)C(=O)N1CCC[C@H](N1)C(=O)OCC(C)(C)C2 | NRAS Q61K binding to BRAF RBD (Homo sapiens (Human), UniProt P01111+P62937, Q61K) | < 5.00 |
| C=CC(=O)N1CC[C@H](C(=O)N(C)[C@H](C(=O)N[C@H]2Cc3cccc(c3)-c3ccc4c(c3)c(c(-c3cccnc3[C@H](C)OC)n4CC)CC(C)(C)COC(=O)[C@@H]3CCCN(N3)C2=O)[C@H](C)C(F)(F)F)C1 (atropisomer, axis not shown) | NRAS Q61K binding to BRAF RBD (Homo sapiens (Human), UniProt P01111+P62937, Q61K) | 5.00 to 6.00 |
| CCn1c(-c2cccnc2[C@H](C)OC)c2c3cc(ccc31)-c1cccc(c1)C[C@H](NC(=O)[C@H](C(C)C)N1CC[C@]3(CCN(C(=O)C#CC(C)(C)N4CCC4)C3)C1=O)C(=O)N1CCC[C@H](N1)C(=O)OCC(C)(C)C2 | NRAS Q61K binding to BRAF RBD (Homo sapiens (Human), UniProt P01111+P62937, Q61K) | 5.00 to 6.00 |
| CCn1c(-c2cccnc2[C@H](C)OC)c2c3cc(ccc31)-c1cccc(c1)C[C@H](NC(=O)[C@H](C(C)C)N1CC[C@@]3(CCN(C(=O)C#CC(C)(C)N4CCC4)C3)C1=O)C(=O)N1CCC[C@H](N1)C(=O)OCC(C)(C)C2 (atropisomer, axis not shown) | NRAS Q61K binding to BRAF RBD (Homo sapiens (Human), UniProt P01111+P62937, Q61K) | < 5.00 |
| CCn1c(-c2cccnc2[C@H](C)OC)c2c3cc(ccc31)-c1csc(n1)C[C@H](NC(=O)[C@H](C(C)C)N(C)C(=O)C1CCN(C(=O)/C=C/CN(C)C)C3(CC3)C1)C(=O)N1CCC[C@H](N1)C(=O)OCC(C)(C)C2 (some centres unmarked) | NRAS Q61K binding to BRAF RBD (Homo sapiens (Human), UniProt P01111+P62937, Q61K) | 7.00 to 8.00 |
